Data credit: patent US20230046728A1

System: Expi293 cells transfected with His-Halotag
Assay: Library cell penetration assay, cell crash method (Example 6)
Format: in vitro ADME, human
Conditions: MS signal of —OH agent from cells, library pool or individual peptide
measure_name: Mass Shifted Peptide Signal in Cells

- substance: "HaloTagO2-Leu-Thr-Phe-ReN-Ala-Tyr-Trp-Ala-Gln-Cba-Az-Ser-Ala-Ala-NHMe [PEP000130]"
  experimental_value: "2E+06"
- substance: "HaloTagO2-Leu-Thr-Phe-ReN-Glu-Tyr-Trp-Ala-Gln-Cba-Az-Ser-Ala-Ala-NHMe [PEP000136]"
  experimental_value: "1E+04"
- substance: "HaloTagO2-Leu-Thr-Phe-ReN-Thr-Tyr-Trp-Ala-Gln-Cba-Az-Ser-Ala-Ala-NH2 [PEP000129]"
  experimental_value: "1E+06"
- substance: "HaloTagO2-Leu-Thr-Phe-ReN-Thr-Tyr-Trp-Ala-Gln-Cba-Az-Ser-Ala-Ala-NHMe [PEP000132]"
  experimental_value: "1E+06"
